target: T1, VEGF-121-His (inhouse production) (human, UniProt P15692 207-395)
T1 construct: His-tagged human VEGF-A121 used in the ELISAs and (captured by an anti-His antibody) in SPR; also called hVEGF-A121; his VEGF; not shown: His tag
T1 sequence: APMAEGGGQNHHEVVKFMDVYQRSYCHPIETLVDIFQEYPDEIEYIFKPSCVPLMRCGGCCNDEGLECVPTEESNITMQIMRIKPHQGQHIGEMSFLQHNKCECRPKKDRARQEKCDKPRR
procedureText: SPR (Biacore), hVEGF-A121 captured by anti-His antibody, Fab injected, 37° C
Listed below: Kd values for each entry.

{"binder": "L3H6 Fab fragment (Fab, V domains shown, Prior art antibody disclosed in WO 2012089176, made here as Fab) VH: QVQLVQSGAEVKKPGESLKISCKGSGYSFTSYWIGWVRQMPGKGLEWMGIIYPGDSDTRYSPSFQGQVTISADKSISTAYLQWSSLKASDTAMYYCARQGTHNRKIWGQGTMVTVSS VL: QAVVTQEPSLTVSPGGTVTLTCASSTGAVTSGNYPNWFQQRPGQPPRALIYSTSNKHSWTPARFSGSLLGGKAALTLSGAQPEDEAEYYCRLSYDLARPVFGGGTKLTVLG", "Kd, pM": 4520}
{"binder": "VEGF-0113 Fab fragment (Fab, V domains shown, Variant of VEGF-0089 (G to P at position 6 of H-CDR2); Fab with rabbit derived CLkappa and CH1) VH: EVQLVESGGGLVQPGGSLRLSCAASGFTFTNYAMTWVRQAPGKGLEWVSSIGNGPGIYTYYADSVKGRFTISRDNSKNTLYLQMNSLRAEDTAVYYCAKGDNLFDSWGPGTLVTVSS VL: DIQMTQSPASLSASVGDRVTITCRASQSIYSSLNWYQQKPGKAPKLLIYASTLQSGVPSRFSGSASGTDFTLTISSLQPEDVATYYCQQYQNFPRTFGQGTKLEIKR", "Kd, pM": 17}
{"binder": "VEGF-0089 Fab fragment (Fab, V domains shown, also called antibody VEGF-0089) VH: EVQLVESGGGLVQPGGSLRLSCAASGFTFTNYAMTWVRQAPGKGLEWVSSIGNGGGIYTYYADSVKGRFTISRDNSKNTLYLQMNSLRAEDTAVYYCAKGDNLFDSWGPGTLVTVSS VL: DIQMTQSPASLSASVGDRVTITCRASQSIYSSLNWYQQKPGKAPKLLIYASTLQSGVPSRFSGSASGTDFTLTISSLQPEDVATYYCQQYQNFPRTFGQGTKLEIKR", "Kd, pM": 99}
